Molecular target: FLJ13397 clone-derived protein (CARP) (Homo sapiens)
Construct: A human full-length cDNA clone was expressed as a protein with an N-terminal His tag; His tag (pDEST17 Gateway vector) (N); made in house; host or cells: Escherichia coli BL21star(DE3)pLysS
Assay: SEC/MS (size exclusion chromatography / mass analysis) interaction analysis between FLJ13397 clone-derived protein and compounds
Assay type: binding
Details: compound 250 μM; protein 0 μM (protein-free reference)
Counter-ions that a name gives are not always drawn.
Reported metric: spectrum intensity of the extracted mass range (compound in SEC spin column filtrate)

| Compound | Experimental value |
| --- | --- |
| CCCS(=O)(=O)c1ccc2[nH]c(N)nc2c1 | 91113992 |
| Nc1nc2ccccc2n1Cc1ccccc1 | 39100216 |
| Nc1nc2ccccc2[nH]1 | 2837732 |
| CC(C)(C)c1ccc(C(O)CCCN2CCC(C(O)(c3ccccc3)c3ccccc3)CC2)cc1 (centres unmarked) | 644365611 |
| COc1ccc(CCN2CCC(Nc3nc4ccccc4n3Cc3ccc(F)cc3)CC2)cc1 | 710392964 |
| CCCSc1ccc2nc(NC(=O)OC)[nH]c2c1 | 151791 |
| CCCOc1ccc2nc(NC(=O)OC)[nH]c2c1 | 2449247 |
| c1ccc2[nH]c(-c3cscn3)nc2c1 | 40530147 |
| Oc1ccc(CCN2CCC(Nc3nc4ccccc4n3Cc3ccc(F)cc3)CC2)cc1 | 135192715 |
| CCCS(=O)(=O)c1ccc2nc(NC(=O)OC)[nH]c2c1 | 66281031 |
| c1ccc2[nH]cnc2c1 | 9545633 |
| OC(c1ccccc1)(c1ccccc1)C1CCNCC1 | 400374746 |
| COC(=O)Nc1nc2ccc(C(=O)c3ccccc3)cc2[nH]1 | 444136 |
| COC(=O)Nc1nc2ccccc2[nH]1 | 34177767 |
| COC(=O)Nc1nc2ccc([S+]([O-])c3ccccc3)cc2[nH]1 (centres unmarked) | 128622627 |
| CCC[S+]([O-])c1ccc2[nH]c(NC(=O)OC)nc2c1 (centres unmarked) [Albendazole Sulfoxide] | 460535649 |
| CC[C@@H](C(=O)[C@@H](C)[C@@H](O)[C@H](C)CCc1ccc(C)c(O)c1C(=O)O)[C@H]1O[C@](CC)([C@H]2CC[C@](O)(CC)[C@H](C)O2)C[C@@H]1C [Lasalocid sodium salt] | 2174989976 |
| COC(=O)Nc1nc2ccc(C(=O)c3cccs3)cc2[nH]1 | 9512433 |
| OCCOCCN1CCN(C(c2ccccc2)c2ccc(Cl)cc2)CC1 (centres unmarked) [Hydroxyzine] | 922692583 |
| COC(=O)Nc1nc2ccc(S(=O)(=O)c3ccccc3)cc2[nH]1 | 5180253 |

----------
Measured spectrum intensity of the extracted mass range (compound in SEC spin column filtrate) by item
Target: FLJ13397 clone-derived protein (CARP) (Homo sapiens)
Construct: A human full-length cDNA clone was expressed as a protein with an N-terminal His tag; His tag (pDEST17 Gateway vector) (N); made in house; host or cells: Escherichia coli BL21star(DE3)pLysS
Test: SEC/MS (size exclusion chromatography / mass analysis) interaction analysis between FLJ13397 clone-derived protein and compounds
Type: binding
Conditions: compound 1 μM; protein 23.75 μM
Reported metric: spectrum intensity of the extracted mass range (compound in SEC spin column filtrate)

| Compound | Experimental value |
| --- | --- |
| c1ccc2[nH]cnc2c1 | 1627696 |
| CCC[S+]([O-])c1ccc2[nH]c(NC(=O)OC)nc2c1 (stereo not shown) [Albendazole Sulfoxide] | 1280086 |
| COC(=O)Nc1nc2ccc(C(=O)c3cccs3)cc2[nH]1 | 5202611 |
| Nc1nc2ccccc2n1Cc1ccccc1 | 1659600 |

----------
Molecular target: FLJ13397 clone-derived protein (CARP) (Homo sapiens, UniProt Q9H8M7)
Construct: A human full-length cDNA clone was expressed as a protein with an N-terminal His tag; His tag (pDEST17 Gateway vector) (N); made in house; host or cells: Escherichia coli BL21star(DE3)pLysS
Sequence (Q9H8M7 whole entry): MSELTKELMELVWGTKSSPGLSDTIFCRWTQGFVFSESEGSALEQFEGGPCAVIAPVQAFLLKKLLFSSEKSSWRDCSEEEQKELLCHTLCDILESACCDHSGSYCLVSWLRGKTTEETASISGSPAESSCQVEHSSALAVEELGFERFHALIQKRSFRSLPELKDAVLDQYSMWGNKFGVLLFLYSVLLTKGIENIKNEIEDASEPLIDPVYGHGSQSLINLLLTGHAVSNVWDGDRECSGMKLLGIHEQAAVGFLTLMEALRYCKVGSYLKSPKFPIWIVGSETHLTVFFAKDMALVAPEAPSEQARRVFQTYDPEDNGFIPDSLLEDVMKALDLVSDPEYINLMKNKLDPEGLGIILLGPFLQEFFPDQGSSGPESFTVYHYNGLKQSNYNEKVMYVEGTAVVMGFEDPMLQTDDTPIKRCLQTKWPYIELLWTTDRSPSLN
Test: SEC/MS (size exclusion chromatography / mass analysis) interaction analysis between FLJ13397 clone-derived protein and compounds
Format: binding
Settings: compound 10 μM; protein 0 μM (protein-free reference)
Measured spectrum intensity of the extracted mass range (compound in SEC spin column filtrate) by item
Reported metric: spectrum intensity of the extracted mass range (compound in SEC spin column filtrate)

| Compound | Subject of test | Experimental value |
| --- | --- | --- |
| CC(C)(C)c1ccc(C(O)CCCN2CCC(C(O)(c3ccccc3)c3ccccc3)CC2)cc1 (stereo not drawn) [Terfenadine] | FLJ13397 clone-derived protein (CARP) (Homo sapiens, UniProt Q9H8M7) | 2641416 |
| OC(c1ccccc1)(c1ccccc1)C1CCNCC1 [α,α-Diphenyl-4-piperidinomethanol] | FLJ13397 clone-derived protein (CARP) (Homo sapiens, UniProt Q9H8M7) | 14109120 |
| OCCOCCN1CCN(C(c2ccccc2)c2ccc(Cl)cc2)CC1 (stereo not drawn) [Hydroxyzine] | FLJ13397 clone-derived protein (CARP) (Homo sapiens, UniProt Q9H8M7) | 134387910 |
| c1ccc2[nH]cnc2c1 [Benzimidazole] | FLJ13397 clone-derived protein (CARP) (Homo sapiens, UniProt Q9H8M7) | 2937731 |
| COc1ccc(CCN2CCC(Nc3nc4ccccc4n3Cc3ccc(F)cc3)CC2)cc1 [Astemizole] | FLJ13397 clone-derived protein (CARP) (Homo sapiens, UniProt Q9H8M7) | 13557249 |
| COC(=O)Nc1nc2ccc(C(=O)c3cccs3)cc2[nH]1 [Nocodazole] | FLJ13397 clone-derived protein (CARP) (Homo sapiens, UniProt Q9H8M7) | 4879694 |
| CCCOc1ccc2nc(NC(=O)OC)[nH]c2c1 [Oxibendazole] | FLJ13397 clone-derived protein (CARP) (Homo sapiens, UniProt Q9H8M7) | 525337 |
| CCC[S+]([O-])c1ccc2[nH]c(NC(=O)OC)nc2c1 (stereo not drawn) [Albendazole Sulfoxide] | FLJ13397 clone-derived protein (CARP) (Homo sapiens, UniProt Q9H8M7) | 11869270 |
| Nc1nc2ccccc2n1Cc1ccccc1 [2-Amino-1-Benzylbenzimidazole, 2-Amino-1-benzylbenzimidazole] | FLJ13397 clone-derived protein (CARP) (Homo sapiens, UniProt Q9H8M7) | 4341825 |

----------
Measured spectrum intensity of the extracted mass range (compound in SEC spin column filtrate) by item
Molecular target: FLJ13397 clone-derived protein (CARP) (Homo sapiens, UniProt Q9H8M7)
Construct: A human full-length cDNA clone was expressed as a protein with an N-terminal His tag; His tag (pDEST17 Gateway vector) (N); made in house; host or cells: Escherichia coli BL21star(DE3)pLysS
Experiment: SEC/MS (size exclusion chromatography / mass analysis) interaction analysis between FLJ13397 clone-derived protein and compounds
Type: binding
Settings: compound 1 μM; protein 23.75 μM
Reported metric: spectrum intensity of the extracted mass range (compound in SEC spin column filtrate)

| Compound | Experimental value |
| --- | --- |
| OCCOCCN1CCN(C(c2ccccc2)c2ccc(Cl)cc2)CC1 (stereo not drawn) [Hydroxyzine] | 126033923 |
| Nc1nc2ccccc2[nH]1 | 42562 |
| COc1ccc(CCN2CCC(Nc3nc4ccccc4n3Cc3ccc(F)cc3)CC2)cc1 | 16006165 |
| CCCS(=O)(=O)c1ccc2nc(NC(=O)OC)[nH]c2c1 | 1155288 |
| c1ccc2[nH]c(-c3cscn3)nc2c1 | 42216896 |
| CCCSc1ccc2nc(NC(=O)OC)[nH]c2c1 | 290428 |
| CC(C)(C)c1ccc(C(O)CCCN2CCC(C(O)(c3ccccc3)c3ccccc3)CC2)cc1 (stereo not drawn) | 1889743 |
| OC(c1ccccc1)(c1ccccc1)C1CCNCC1 | 1217276 |
| COC(=O)Nc1nc2ccccc2[nH]1 | 16443963 |

----------
Molecular target: FLJ13397 clone-derived protein (CARP) (Homo sapiens, UniProt Q9H8M7)
Construct: A human full-length cDNA clone was expressed as a protein with an N-terminal His tag; His tag (pDEST17 Gateway vector) (N); made in house; host or cells: Escherichia coli BL21star(DE3)pLysS
Test: SEC/MS (size exclusion chromatography / mass analysis) interaction analysis between FLJ13397 clone-derived protein and compounds
Assay type: binding
Conditions: compound 250 μM; protein 23.75 μM
Measured spectrum intensity of the extracted mass range (compound in SEC spin column filtrate) by item
Reported metric: spectrum intensity of the extracted mass range (compound in SEC spin column filtrate)

| Molecule | Subject of test | Experimental value |
| --- | --- | --- |
| COC(=O)Nc1nc2ccc([S+]([O-])c3ccccc3)cc2[nH]1 (centres unmarked) [Oxfendazole] | FLJ13397 clone-derived protein (CARP) (Homo sapiens, UniProt Q9H8M7) | 264420112 |
| COC(=O)Nc1nc2ccc(C(=O)c3cccs3)cc2[nH]1 [Nocodazole] | FLJ13397 clone-derived protein (CARP) (Homo sapiens, UniProt Q9H8M7) | 131043824 |
| CCCS(=O)(=O)c1ccc2[nH]c(N)nc2c1 [2-Amino-5-N-Propylsulphonylbenzimidazole, 2-Amino-5-N-propylsulphonylbenzimidazole] | FLJ13397 clone-derived protein (CARP) (Homo sapiens, UniProt Q9H8M7) | 98334673 |
| COC(=O)Nc1nc2ccc(S(=O)(=O)c3ccccc3)cc2[nH]1 [Fenbendazole Sulfone] | FLJ13397 clone-derived protein (CARP) (Homo sapiens, UniProt Q9H8M7) | 165761033 |
| CC(C)(C)c1ccc(C(O)CCCN2CCC(C(O)(c3ccccc3)c3ccccc3)CC2)cc1 (centres unmarked) [Terfenadine] | FLJ13397 clone-derived protein (CARP) (Homo sapiens, UniProt Q9H8M7) | 1389061661 |
| OC(c1ccccc1)(c1ccccc1)C1CCNCC1 [α,α-Diphenyl-4-piperidinomethanol] | FLJ13397 clone-derived protein (CARP) (Homo sapiens, UniProt Q9H8M7) | 620399620 |
| COc1ccc(CCN2CCC(Nc3nc4ccccc4n3Cc3ccc(F)cc3)CC2)cc1 [Astemizole] | FLJ13397 clone-derived protein (CARP) (Homo sapiens, UniProt Q9H8M7) | 1027353172 |
| Nc1nc2ccccc2[nH]1 [2-Aminobenzimidazole] | FLJ13397 clone-derived protein (CARP) (Homo sapiens, UniProt Q9H8M7) | 7370524 |
